The reported numbers originate from patent US9201014B2.

Recorded measurements of φ, quantum yield, one per entry
- procedure.text: Absorbance and fluorescence maximum wavelengths and quantum yields of the CyNA library
- Type: physicochemical
- measurement.parameters: in DMSO, Cardiogreen as standard
measurement.label: φ, quantum yield

> print(dat)
                               given.smiles  number
1  CCCCN(C(C)=O)C1=C(/C=C/C2=[N+](CCC)c3ccccc3C2(C)C)CCC/C1=C\C=C1\N(CCC)c2ccccc2C1(C)C    0.07
2  CCCCCCCCCCCN(C(C)=O)C1=C(/C=C/C2=[N+](CCC)c3ccccc3C2(C)C)CCC/C1=C\C=C1\N(CCC)c2ccccc2C1(C)C    0.14
3  CCCN1/C(=C/C=C2\CCCC(/C=C/C3=[N+](CCC)c4ccccc4C3(C)C)=C2N(CCc2ccc(CC)cc2)C(C)=O)C(C)(C)c2ccccc21    0.08
4  CCCN1/C(=C/C=C2\CCCC(/C=C/C3=[N+](CCC)c4ccccc4C3(C)C)=C2N(Cc2ccc(Cl)c(Cl)c2)C(C)=O)C(C)(C)c2ccccc21    0.09
5  CCCN1/C(=C/C=C2\CCCC(/C=C/C3=[N+](CCC)c4ccccc4C3(C)C)=C2N(Cc2ccc(C)cc2)C(C)=O)C(C)(C)c2ccccc21    0.09
6  CCCN(C(C)=O)C1=C(/C=C/C2=[N+](CCC)c3ccccc3C2(C)C)CCC/C1=C\C=C1\N(CCC)c2ccccc2C1(C)C    0.09
